Tested on: Mel-DCC-11-R
testDescription: cell viability relative to DMSO control (fraction of DMSO control); higher = less cytotoxic, active = 0.8 or less
recordedConditions: 1 µM; 120 h; vemurafenib co-treatment 8 µM
measuredAttribute: cell viability

1. C=C(c1ccc(C(=O)O)cc1)c1cc2c(cc1C)C(C)(C)CCC2(C)C [Bexarotene] : 1.59
2. CNNCc1ccc(C(=O)NC(C)C)cc1.Cl [Procarbazine hydrochloride] : 1.25
3. O=NN(CCCl)C(=O)NC1CCCCC1 [Lomustine] : 1.11
4. O=C(/C=C/c1cccc(S(=O)(=O)Nc2ccccc2)c1)NO [Belinostat] : 0.659
5. C=C1CC[C@@H]2[C@](C)(CO)[C@H](O)CC[C@@]2(C)[C@@H]1C/C=C1/C(=O)OC[C@H]1O [Andrographolide] : 1.02
6. O=C1CCC(N2C(=O)c3ccccc3C2=O)C(=O)N1 (stereo unspecified) [Thalidomide] : 0.589
7. CC1=C(/C=C/C(C)=C/C=C/C(C)=C\C(=O)O)C(C)(C)CCC1 [Isotretinoin] : 1.3
8. COC(=O)N[C@H](C(=O)N1CC2(CC2)C[C@H]1c1ncc(-c2ccc3c(c2)C(F)(F)c2cc(-c4ccc5nc([C@@H]6[C@H]7CC[C@H](C7)N6C(=O)[C@@H](NC(=O)OC)C(C)C)[nH]c5c4)ccc2-3)[nH]1)C(C)C [Ledipasvir] : 0.51
9. CCS(=O)(=O)N1CC(CC#N)(n2cc(-c3ncnc4[nH]ccc34)cn2)C1 [Baricitinib] : 1.22
10. CC[C@@]1(O)C(=O)OCc2c1cc1n(c2=O)Cc2cc3cc(O)ccc3nc2-1 [10-Hydroxycamptothecin] : 0.249
11. Nc1ncn([C@H]2C[C@H](O)[C@@H](CO)O2)c(=O)n1 [Decitabine] : 0.968
12. Cc1ccc(Nc2nccc(N(C)c3ccc4c(C)n(C)nc4c3)n2)cc1S(N)(=O)=O [Pazopanib] : 1.13
13. C#Cc1cccc(Nc2ncnc3cc4c(cc23)OCCOCCOCCO4)c1 [Icotinib] : 0.849
14. CNC(=O)c1ccc(N2C(=S)N(c3cnc(C#N)c(C(F)(F)F)c3)C(=O)C23CCC3)cc1F [Apalutamide] : 1.1
15. CC(C)(C#N)c1cc(Cn2cncn2)cc(C(C)(C)C#N)c1 [Anastrozole] : 1.01
16. Cc1ccc(NC(=O)c2ccc(CN3CCN(C)CC3)cc2)cc1Nc1nccc(-c2cccnc2)n1 [Imatinib] : 1.1

* * *

Test system: NHEM-hTERT
testDescription: cell viability relative to DMSO control (fraction of DMSO control); higher = less cytotoxic, active = 0.5 or less
recordedConditions: 1 µM; 120 h
Please respond with Fulfilled when measured cell viability is strictly beneath 1, and with Not fulfilled in all other cases.

1. COC(=O)[C@]12CCC(C)(C)C[C@H]1[C@H]1C(=O)C=C3[C@@]4(C)C=C(C#N)C(=O)C(C)(C)[C@@H]4CC[C@@]3(C)[C@]1(C)CC2 : Fulfilled
2. NC(=O)c1ncn([C@@H]2O[C@H](CO)[C@@H](O)[C@H]2O)c1N : Not fulfilled
3. CNC(=O)c1cc(Oc2ccc(NC(=O)Nc3ccc(Cl)c(C(F)(F)F)c3)cc2)ccn1.Cc1ccc(S(=O)(=O)O)cc1 [Sorafenib tosylate] : Fulfilled
4. Cc1nc(Nc2ncc(C(=O)Nc3c(C)cccc3Cl)s2)cc(N2CCN(CCO)CC2)n1 : Fulfilled
5. CC(C)(CO)c1cc2cc(NC(=O)C3(c4ccc5c(c4)OC(F)(F)O5)CC3)c(F)cc2n1C[C@@H](O)CO : Not fulfilled
6. COc1cc([C@@H]2c3cc4c(cc3[C@@H](O[C@@H]3O[C@@H]5CO[C@@H](C)O[C@H]5[C@H](O)[C@H]3O)C3COC(=O)C32)OCO4)cc(OC)c1O (stereo not given in full) [Etoposide] : Fulfilled
7. COc1cc2c(Oc3ccc4[nH]c(C)cc4c3F)ncnc2cc1OCCCN1CCCC1 : Fulfilled
8. CNNCc1ccc(C(=O)NC(C)C)cc1.Cl [Procarbazine hydrochloride] : Not fulfilled
9. Cc1cn(-c2cc(NC(=O)c3ccc(C)c(Nc4nccc(-c5cccnc5)n4)c3)cc(C(F)(F)F)c2)cn1 : Fulfilled
10. CCC1(O)C(=O)OCc2c1cc1n(c2=O)Cc2cc3cc(O)ccc3nc2-1 (stereo not given) [Hydroxy Camptothecine] : Fulfilled
11. O=c1cc[nH]c(=O)[nH]1 : Not fulfilled
12. COc1cc2nccc(Oc3ccc(NC(=O)NC4CC4)c(Cl)c3)c2cc1C(N)=O : Fulfilled

* * *

System: Mel-DCC-11-R
testDescription: cell viability relative to DMSO control (fraction of DMSO control); higher = less cytotoxic, active = 0.8 or less
recordedConditions: 1 µM; 120 h; vemurafenib co-treatment 8 µM
Classes used: T (active), F (inactive)

1) COc1cccc2c1C(=O)c1c(O)c3c(c(O)c1C2=O)C[C@@](O)(C(=O)CO)C[C@@H]3O[C@H]1C[C@H](N)[C@H](O[C@H]2CCCCO2)[C@H](C)O1 : T
2) Nc1ccccc1NC(=O)c1ccc(CNc2nccc(-c3cccnc3)n2)cc1 : T
3) C=CC(=O)Nc1cc(Nc2nccc(-c3cn(C)c4ccccc34)n2)c(OC)cc1N(C)CCN(C)C : F
4) CC[C@]1(O)C[C@@H]2C[N@@](CCc3c([nH]c4ccccc34)[C@@](C(=O)OC)(c3cc4c(cc3OC)N(C)[C@H]3[C@@](O)(C(=O)OC)[C@H](OC(C)=O)[C@]5(CC)C=CCN6CC[C@]43[C@@H]65)C2)C1.O=S(=O)(O)O [Vinblastine sulfate] : T
5) CC(C)C[C@H](NC(=O)[C@@H](O)[C@H](N)Cc1ccccc1)C(=O)O : F
6) CC(C)(C)c1nc(-c2cccc(NS(=O)(=O)c3c(F)cccc3F)c2F)c(-c2ccnc(N)n2)s1 : F
7) CCc1cn([C@H]2C[C@H](O)[C@@H](CO)O2)c(=O)[nH]c1=O : F
8) CC(C)CN(C[C@@H](O)[C@H](Cc1ccccc1)NC(=O)O[C@H]1CCOC1)S(=O)(=O)c1ccc(N)cc1 : F
9) COc1cc2c(N3CCN(C(=O)Nc4ccc(OC(C)C)cc4)CC3)ncnc2cc1OCCCN1CCCCC1 : F
10) COC(=O)C1=C(C)NC(C)=C(C(=O)OC)C1c1ccccc1[N+](=O)[O-] : F
11) Nc1nc([O-])c2c(CCc3ccc(C(=O)N[C@@H](CCC(=O)[O-])C(=O)[O-])cc3)c[nH]c2n1.[Na+].[Na+] [Pemetrexed disodium] : F
12) CC#CC(=O)N1CCC[C@H]1c1nc(-c2ccc(C(=O)Nc3ccccn3)cc2)c2c(N)nccn12 : F
13) COc1ccc([C@@H]2CC(=O)c3c(O)cc(O)cc3O2)cc1O : F
14) CC(C)C[C@H](NC(=O)[C@H](CCc1ccccc1)NC(=O)CN1CCOCC1)C(=O)N[C@@H](Cc1ccccc1)C(=O)N[C@@H](CC(C)C)C(=O)[C@@]1(C)CO1 : T
15) CCCCCCCCCCCCCCCC(=O)OC/C=C(C)/C=C/C=C(C)/C=C/C1=C(C)CCCC1(C)C [Retinol palmitate] : F
16) CCC1(O)C(=O)OCc2c1cc1n(c2=O)Cc2cc3cc(O)ccc3nc2-1 (stereo not drawn) [Hydroxy Camptothecine] : T
17) O=[N+]([O-])c1cncn1CCN1CCOCC1 : F
18) C[C@H](Nc1ncnc2nc[nH]c12)c1cc2cccc(Cl)c2c(=O)n1-c1ccccc1 : F
19) Nc1nc2[nH]nnc2c(=O)[nH]1 : F
20) COc1ccc2c(c1OC)C(=O)O[C@@H]2[C@H]1c2c(cc3c(c2OC)OCO3)CC[NH+]1C.[Cl-] [Noscapine hydrochloride] : F
21) O=c1[nH]c(=O)n([C@H]2C[C@H](O)[C@@H](CO)O2)cc1F : F
22) Cc1ccc(-c2ncc(Cl)cc2-c2ccc(S(C)(=O)=O)cc2)cn1 : F
23) O=C(O)C1CSCN1 (stereo not drawn) : F
24) CC1(C)O[C@H]2CC(=O)OC[C@]23[C@H]2CC[C@@]4(C)[C@H](c5ccoc5)OC(=O)[C@H]5O[C@]54[C@]2(C)C(=O)C[C@@H]13 : F
25) CC1(C)CCC(C)(C)c2cc(NC(=O)c3ccc(C(=O)O)cc3)ccc21 : F
26) COc1cc([C@@H]2c3cc4c(cc3[C@@H](O[C@@H]3O[C@@H]5CO[C@@H](c6cccs6)O[C@H]5[C@H](O)[C@H]3O)[C@H]3COC(=O)[C@H]23)OCO4)cc(OC)c1O [Teniposide] : T
27) Cc1cc(Nc2cc(N3CCN(C)CC3)nc(Sc3ccc(NC(=O)C4CC4)cc3)n2)n[nH]1 : T
28) CC(=O)O[C@]1(C(C)=O)CC[C@H]2[C@@H]3C=C(C)C4=CC(=O)CC[C@]4(C)[C@H]3CC[C@@]21C [Megestrol acetate] : F

Each recorded value in this set is attributed to the supplement of paper PMC12808144.
